# Test Description: Intrinsic clearance in dog liver microsomes assessed per mg of protein
# Type: ADME, Canis lupus familiaris, Microsome
Measured Quantity: microsomal CLint

Example cases with answers are listed next.
# Compound, microsomal CLint
rows = [
    ("COC(=O)N1CCc2nc(C)n([C@H]3C[C@H]4CC[C@@H](C3)N4CC[C@H](NC(C)=O)c3cccc(F)c3)c2C1", "32 µL/min/mg"),
    ("Cc1nnc(C(C)C)n1[C@@H]1C[C@H]2CC[C@@H](C1)N2CC[C@H](NC(=O)C1CCC(F)(F)CC1)c1ccccc1 [MARAVIROC]", "< 9 µL/min/mg"),
    ("COC(=O)N1CCc2c(nc(C)n2[C@H]2C[C@H]3CC[C@@H](C2)N3CC[C@H](NC(C)=O)c2cccc(F)c2)C1", "< 9 µL/min/mg"),
]

Now for another entry.
Assign microsomal CLint to the following record: CC(=O)N[C@@H](CCN1[C@@H]2CC[C@H]1C[C@@H](n1c(C)nc3c1CCN(C(=O)C(C)C)C3)C2)c1cccc(F)c1 [PF-232798]
< 9 µL/min/mg

----------
# Test Description: Half life in rat at 2 mg/kg, iv and 2 mg/kg, po
# Type: ADME, organism-based
# Conditions: in vivo
Measured Quantity: half-life (h)
Lab book: enter the figure in h, no units written.

Supply measured half-life of COC(=O)N1CCc2c(nc(C)n2[C@H]2C[C@H]3CC[C@@H](C2)N3CC[C@H](NC(C)=O)c2cccc(F)c2)C1 in your reply.
2.3

----------
# Test Description: Volume of distribution in dog at 0.5 mg/kg, iv and 1 mg/kg, po
# Format: ADME, organism-based, Canis lupus familiaris
# Conditions: in vivo
Measured Quantity: Vd (L/kg)
# output: bare number, implied unit L/kg

Give the value of Vd reported for the following: Cc1nnc(C(C)C)n1[C@@H]1C[C@H]2CC[C@@H](C1)N2CC[C@H](NC(=O)C1CCC(F)(F)CC1)c1ccccc1 [MARAVIROC]
4.3

----------
Listed next: entries and their corresponding inhibition at 0.3 µM.
# Target Or Test System: UniProt:Q12809
# Test Description: in vitro
# Conditions: HEK293 cells that express human ERG, probe [3H]-dofetilide
# Description: Displacement of [3H]-dofetilide from human ERG expressed in HEK293 cells at 300 nM
Reply numerically in %, unit not repeated.

Reference set (5 entries):
# Molecule, Measured Quantity, Unit Abbreviation, Result Number
rows = [
    ("CC(=O)N[C@@H](CCN1[C@@H]2CC[C@H]1C[C@@H](n1c(C)nc3c1CN(C(=O)OC(C)C)CC3)C2)c1ccccc1", "inhibition at 0.3 µM", "%", 75),
    ("CC(=O)N[C@@H](CCN1[C@@H]2CC[C@H]1C[C@@H](n1c(C)nc3c1CN(C(=O)C(C)C)CC3)C2)c1ccccc1", "inhibition at 0.3 µM", "%", 0),
    ("CCC(=O)N1CCc2nc(C)n([C@H]3C[C@H]4CC[C@@H](C3)N4CC[C@H](NC(C)=O)c3ccccc3)c2C1", "inhibition at 0.3 µM", "%", 13),
    ("COC(=O)N[C@@H](CCN1[C@@H]2CC[C@H]1C[C@@H](n1c(C)nc3c1CN(C(C)=O)CC3)C2)c1cccc(F)c1", "inhibition at 0.3 µM", "%", 28),
    ("COC(=O)N[C@@H](CCN1[C@@H]2CC[C@H]1C[C@@H](n1c(C)nc3c1CN(C(=O)OC)CC3)C2)c1cccc(F)c1", "inhibition at 0.3 µM", "%", 69),
]

Field: next compound
Find the measured inhibition at 0.3 µM of COC(=O)N1CCc2nc(C)n([C@H]3C[C@H]4CC[C@@H](C3)N4CC[C@H](NC(C)=O)c3ccccc3)c2C1 and report it.
20

----------
# Test Description: Octanol-buffer partition coefficient, log D of the compound
Measured Quantity: logD
Note: the reply should be a number with no unit written.

# Molecule, logD
measured = [
    ("COC(=O)N[C@@H](CCN1[C@@H]2CC[C@H]1C[C@@H](n1c(C)nc3c1CN(C(C)=O)CC3)C2)c1cccc(F)c1", 1.7),
    ("COC(=O)N1CCc2nc(C)n([C@H]3C[C@H]4CC[C@@H](C3)N4CC[C@H](NC(C)=O)c3ccccc3)c2C1", 1.5),
    ("CC(=O)N[C@@H](CCN1[C@@H]2CC[C@H]1C[C@@H](n1c(C)nc3c1CN(C(=O)C(C)C)CC3)C2)c1ccccc1", 1.6),
    ("CCCC(=O)N1CCc2c(nc(C)n2[C@H]2C[C@H]3CC[C@@H](C2)N3CC[C@H](NC(C)=O)c2cccc(F)c2)C1", 2.2),
    ("CCC(=O)N1CCc2c(nc(C)n2[C@H]2C[C@H]3CC[C@@H](C2)N3CC[C@H](NC(C)=O)c2cccc(F)c2)C1", 1.7),
    ("CCC(=O)N1CCc2nc(C)n([C@H]3C[C@H]4CC[C@@H](C3)N4CC[C@H](NC(C)=O)c3ccccc3)c2C1", 1.2),
]

Answer with reported logD of CC(=O)N[C@@H](CCN1[C@@H]2CC[C@H]1C[C@@H](n1c(C)nc3c1CN(C(C)C)CC3)C2)c1ccccc1
0.8

Item CC(=O)N[C@@H](CCN1[C@@H]2CC[C@H]1C[C@@H](n1c(C)nc3c1CCN(c1cnccn1)C3)C2)c1cccc(F)c1 : provide logD
3

----------
# Test Description: Half life in dog at 0.5 mg/kg, iv and 0.5 mg/kg, po
# Assay type: ADME, organism-based, Canis lupus familiaris
# Conditions: in vivo
Measured Quantity: half-life (h)
Report the value in h with no unit label.

# Molecule, half-life / h
data = [
    ("COC(=O)N1CCc2nc(C)n([C@H]3C[C@H]4CC[C@@H](C3)N4CC[C@H](NC(C)=O)c3cccc(F)c3)c2C1", 3.8),
    ("CC(=O)N[C@@H](CCN1[C@@H]2CC[C@H]1C[C@@H](n1c(C)nc3c1CCN(C(=O)C(C)C)C3)C2)c1cccc(F)c1", 3.4),
]

Okay, now this compound:
Fill in reported half-life for this entry: COC(=O)N1CCc2c(nc(C)n2[C@H]2C[C@H]3CC[C@@H](C2)N3CC[C@H](NC(C)=O)c2cccc(F)c2)C1
3.3

----------
# Test Description: Plasma protein binding in dog at 0.5 mg/kg, iv and 0.5 mg/kg, po
# Format: ADME, organism-based, Canis lupus familiaris
# Conditions: read-out: PPB (converted)
Measured Quantity: fraction unbound
Please reply with the value in numeric form only.

Worked cases, fraction unbound given:
# Molecule, fraction unbound
data = [
    ("COC(=O)N1CCc2c(nc(C)n2[C@H]2C[C@H]3CC[C@@H](C2)N3CC[C@H](NC(C)=O)c2cccc(F)c2)C1", 0.27),
    ("COC(=O)N1CCc2nc(C)n([C@H]3C[C@H]4CC[C@@H](C3)N4CC[C@H](NC(C)=O)c3cccc(F)c3)c2C1", 0.38),
]

Turning now to a further record.
Annotate the compound CC(=O)N[C@@H](CCN1[C@@H]2CC[C@H]1C[C@@H](n1c(C)nc3c1CCN(C(=O)C(C)C)C3)C2)c1cccc(F)c1 with its measured fraction unbound.
0.53

----------
# Target Or Test System: Voltage-gated inwardly rectifying potassium channel KCNH2 (Homo sapiens, UniProt Q12809)
# Sequence (Q12809 whole entry): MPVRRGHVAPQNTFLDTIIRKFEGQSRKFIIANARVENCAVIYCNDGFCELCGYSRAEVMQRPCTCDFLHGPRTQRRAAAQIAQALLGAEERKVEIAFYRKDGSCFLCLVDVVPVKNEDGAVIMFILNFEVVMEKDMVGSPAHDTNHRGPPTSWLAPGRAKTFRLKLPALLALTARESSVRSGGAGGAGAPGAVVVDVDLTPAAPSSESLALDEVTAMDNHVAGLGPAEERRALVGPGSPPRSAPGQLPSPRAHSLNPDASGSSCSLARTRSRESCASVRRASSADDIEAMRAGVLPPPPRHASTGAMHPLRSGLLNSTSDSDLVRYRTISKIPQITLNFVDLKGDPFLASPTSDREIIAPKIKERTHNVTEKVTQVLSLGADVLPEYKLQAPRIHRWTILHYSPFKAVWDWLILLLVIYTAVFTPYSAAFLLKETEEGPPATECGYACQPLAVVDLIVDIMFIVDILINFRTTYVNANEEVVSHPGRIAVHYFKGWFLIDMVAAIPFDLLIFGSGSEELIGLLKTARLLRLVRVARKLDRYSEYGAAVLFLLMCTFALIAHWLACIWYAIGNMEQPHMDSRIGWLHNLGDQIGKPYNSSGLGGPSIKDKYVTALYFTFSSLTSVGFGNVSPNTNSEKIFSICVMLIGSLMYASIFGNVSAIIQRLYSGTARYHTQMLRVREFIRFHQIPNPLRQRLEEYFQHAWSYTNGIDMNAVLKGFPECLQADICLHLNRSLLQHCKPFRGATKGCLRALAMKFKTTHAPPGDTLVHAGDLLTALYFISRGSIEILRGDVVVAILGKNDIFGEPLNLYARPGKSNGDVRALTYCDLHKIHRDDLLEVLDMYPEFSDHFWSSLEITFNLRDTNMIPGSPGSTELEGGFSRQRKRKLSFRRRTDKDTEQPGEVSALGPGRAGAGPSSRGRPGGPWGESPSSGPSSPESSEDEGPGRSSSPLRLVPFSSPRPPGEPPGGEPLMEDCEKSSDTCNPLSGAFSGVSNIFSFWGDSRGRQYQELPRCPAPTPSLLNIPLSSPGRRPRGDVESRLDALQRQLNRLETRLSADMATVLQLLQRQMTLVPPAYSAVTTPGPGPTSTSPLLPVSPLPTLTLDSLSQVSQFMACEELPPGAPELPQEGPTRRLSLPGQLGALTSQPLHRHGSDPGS
# label = yes (1) if IC50 < 2000 nM else no (0)

# Molecule, Label
rows = [
    ("CC(=O)N[C@@H](CCN1[C@@H]2CC[C@H]1C[C@@H](n1c(C)nc3ccccc31)C2)c1ccccc1", "yes (1)"),
    ("CCC(=O)N1CCc2c(nc(C)n2[C@H]2C[C@H]3CC[C@@H](C2)N3CC[C@H](NC(C)=O)c2cccc(F)c2)C1", "no (0)"),
    ("CC(=O)N[C@@H](CCN1[C@@H]2CC[C@H]1C[C@@H](n1c(C)nc3c1CCN(c1ccncn1)C3)C2)c1cccc(F)c1", "yes (1)"),
    ("CC(=O)N[C@@H](CCN1[C@@H]2CC[C@H]1C[C@@H](n1c(C)nc3c1CCN(c1cnccn1)C3)C2)c1cccc(F)c1", "yes (1)"),
    ("Cc1nc(C(C)C)n([C@H]2C[C@H]3CC[C@@H](C2)N3CC[C@H](NC(=O)C2CCC(F)(F)CC2)c2ccccc2)n1", "no (0)"),
]

Attention now shifts to the item below.
hey, is IC50 for CC(=O)N[C@@H](CCN1[C@@H]2CC[C@H]1C[C@@H](n1c(C)nc3c1CCN(C(=O)C(C)C)C3)C2)c1cccc(F)c1 [PF-232798] lower than 2000 nM or not?
no (0)

----------
# Test Description: Intrinsic clearance in human liver microsomes assessed per mg of protein
# Type: ADME, Microsome
Let's look at some molecules and their measured microsomal CLint.

Using known records, supply microsomal CLint for CC(=O)N[C@@H](CCN1[C@@H]2CC[C@H]1C[C@@H](n1c(C)nc3c1CCN(C(C)=O)C3)C2)c1cccc(F)c1
< 8 µL/min/mg

Quote microsomal CLint reported for COC(=O)N1CCc2c(nc(C)n2[C@H]2C[C@H]3CC[C@@H](C2)N3CC[C@H](NC(C)=O)c2cccc(F)c2)C1 please.
< 8 µL/min/mg

Please give the documented microsomal CLint of COC(=O)N[C@@H](CCN1[C@@H]2CC[C@H]1C[C@@H](n1c(C)nc3c1CN(C(=O)OC)CC3)C2)c1cccc(F)c1
92 µL/min/mg

Given CC(=O)N[C@@H](CCN1[C@@H]2CC[C@H]1C[C@@H](n1c(C)nc3c1CN(S(C)(=O)=O)CC3)C2)c1ccccc1 , respond with its microsomal CLint.
24 µL/min/mg

Supply microsomal CLint value. Item: CC(=O)N[C@@H](CCN1[C@@H]2CC[C@H]1C[C@@H](n1c(C)nc3c1CN(C(=O)C(C)C)CC3)C2)c1ccccc1
42 µL/min/mg

Consider the molecule CCC(=O)N1CCc2c(nc(C)n2[C@H]2C[C@H]3CC[C@@H](C2)N3CC[C@H](NC(C)=O)c2cccc(F)c2)C1 . State its measured microsomal CLint.
11 µL/min/mg

Quote microsomal CLint reported for COC(=O)N[C@@H](CCN1[C@@H]2CC[C@H]1C[C@@H](n1c(C)nc3c1CN(C(C)=O)CC3)C2)c1cccc(F)c1 please.
24 µL/min/mg
